# Tested on: pathogenic bacteria
# ASSAY_PROTOCOL: MIC by microdilution broth method (NCCLS M7-A4), in vitro antibacterial activity
# Type: cell-based
# MEASUREMENT_CONDITIONS: Streptococcus pneumoniae, Organism B: fluoroquinolone-resistant clinical isolate of Streptococcus pneumoniae (QRDR amino acid substitutions)
Counter-ions that a name gives are not always drawn.
QUANTITY_MEASURED: log10 MIC (log10 of the value in µg/mL)
Parameter value (number): base-10 log of MIC in µg/mL.

Worked cases, answers included:
NC/C(F)=C1/CCCN(c2c(F)c(N)c3c(=O)c(C(=O)O)cn(C4CC4)c3c2F)C1
-1.22
CNCC(Cl)=C1CN(c2c(F)cc3c(=O)c(C(=O)O)cn(-c4nc(N)c(F)cc4F)c3c2Cl)C1
1.20
NC/C(F)=C1/CCCN(c2cc3c(cc2F)c(=O)c(C(=O)O)cn3C2CC2)C1 [Compound 256, Trifluoroacetic Acid Salt]
0.00
C[C@H]1COc2c(N3CCC(=C(Cl)CN)CC3)c(F)cc3c(=O)c(C(=O)O)cn1c23
-0.60
NC/C(Cl)=C1\CCCN(c2cc3c(cc2F)c(=O)c(C(=O)O)cn3C2CC2)C1
0.90
C/C(CN)=C1\CCCN(c2nc3c(cc2F)c(=O)c(C(=O)O)cn3C2CC2)C1.O=C(O)C(F)(F)F
1.20

Batch of 5 compounds: report log10 MIC for each.
1. NCC(Cl)=C1CCN(c2nc3c(cc2F)c(=O)c(C(=O)O)cn3C2CC2)CC1
2. CC1(C)CN(c2nc3c(cc2F)c(=O)c(C(=O)O)cn3C2CC2)CCC1=C(Br)CN
3. COc1c(N2CCC(=C(Cl)CN3CCCCC3)CC2)c(F)cc2c(=O)c(C(=O)O)cn(C3CC3)c12
4. Nc1nc(-n2cc(C(=O)O)c(=O)c3cc(F)c(N4CC(=C(F)CO)C4)c(Cl)c32)c(F)cc1F
5. COc1c(N2CCC(=C(F)CN(C)C)CC2)c(F)cc2c(=O)c(C(=O)O)cn(C3CC3)c12

Solution:
0.00
-0.30
0.30
-1.52
0.00

Data credit: patent US20090156577A1
